Known %Inh of a selection of compounds
test system: IRAK1; conditions: concentration: 1 μM, replicates: in singlicate; n = 1;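 note: KINOMEscan kinase panel screen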
result.type: %Inh

INSERT INTO assay_data (compound, result_type, assay_value) VALUES
  ('Nc1nc(-c2ccc3c(N)n[nH]c3c2)cc(N2CCC[C@@H](C(=O)Nc3ccccc3)C2)n1.O=C(O)C(F)(F)F.O=C(O)C(F)(F)F [GSK2288359]', '%Inh', '0%'),
  ('CC(=O)Nc1n[nH]c2ncc(-c3ccccc3)cc12 [SB-548492]', '%Inh', '0%'),
  ('O=C(Nc1ccccc1F)NC1CCN(c2ccnc(Nc3ccc(F)cc3)n2)C1 (centres unmarked) [GSK1379722]', '%Inh', '34%'),
  ('CS(=O)(=O)CCNCc1nc(-c2ccc3ncnc(Nc4ccc(OCc5cccc(F)c5)c(Cl)c4)c3c2)cs1.Cl [GW583340]', '%Inh', '0%'),
  ('Clc1cccc(-c2nc(Nc3ccncc3)c3ccccc3n2)c1 [GW873004]', '%Inh', '7%'),
  ('COc1ccc(Nc2nccc(N3CCC(NC(=O)c4cccc(NC(C)=O)c4)C3)n2)cc1 (centres unmarked) [GSK1379732]', '%Inh', '24%'),
  ('O=C(CCO)NCCn1ccc2ncnc(Nc3ccc(Oc4cccc(C(F)(F)F)c4)c(Cl)c3)c21', '%Inh', '0%'),
  ('C[C@@H]1CCN(C(=O)CO)C[C@@H]1N(C)c1ncnc2[nH]ccc12', '%Inh', '0%');

###

tested on: ARK5; construct: gene NUAK1; settings: concentration: 1 μM, replicates: in singlicate; n = 1
result.type: %Inh

INSERT INTO results (molecule, result_type, assay_value) VALUES
  ('Cl.Fc1ccccc1COc1ccc(Nc2ncnc3ccc(-c4nnc(C(F)(F)F)o4)cc23)cc1Cl', '%Inh', '0%'),
  ('Cc1cc(N2CCC(NS(=O)(=O)c3ccc(F)cc3)CC2)nc(Nc2cccc(C#N)c2)n1.O=C(O)C(F)(F)F', '%Inh', '15%'),
  ('CC(=O)Nc1n[nH]c2ncc(-c3ccccc3)cc12', '%Inh', '0%'),
  ('c1ccc(-c2ccc3c(-c4ccnc(Nc5ccc6c(c5)OCCO6)n4)cnn3n2)cc1', '%Inh', '15%'),
  ('Nc1nccc2scc(-c3ccc4c(c3)CCN4C(=O)Cc3cc(F)ccc3F)c12', '%Inh', '0%'),
  ('CCC(CC)(CC)n1cnc2c(N)ncnc21', '%Inh', '0%'),
  ('COc1ccc(Nc2nccc(N3CCC(NC(=O)Nc4ccc5c(c4)OCO5)C3)n2)cc1 (stereo not drawn)', '%Inh', '9%'),
  ('CCn1c(-c2ccncc2)nc2cnccc21', '%Inh', '8%'),
  ('CC(C)(C)c1ccc(-n2cnc3c(N)ncnc32)cc1', '%Inh', '10%');

###

Known %Inh of a selection of compounds
tested on: CDK2; conditions: concentration: 1 μM, replicates: in singlicate; n = 1
result.type: %Inh

INSERT INTO results (compound, result_type, assay_value) VALUES
  ('CN1CCC(n2cnc(-c3ccc(F)cc3)c2-c2ccnc(NC3CCNCC3)n2)CC1 [SB-229482]', '%Inh', '0%'),
  ('Nc1nccc2scc(-c3ccc4c(c3)CCN4C(=O)Cc3cc(F)ccc3F)c12 [GSK2587663]', '%Inh', '0%'),
  ('CN1c2ccc(-c3ccc(C(=O)NCCO)cc3)cc2-c2[nH]ncc2S1(=O)=O', '%Inh', '2%'),
  ('Cc1ccc(NC(=O)c2cccc(C#N)c2)cc1-c1ccc(C(=O)Nc2ccncc2)cc1 [GSK1398463]', '%Inh', '0%'),
  ('Fc1ccc(Nc2nccc(-c3c(-c4ccc(Cl)cc4)nn4ncccc34)n2)cc1F [GW829058]', '%Inh', '13%'),
  ('Cc1ccc(C)c(NC(=O)NCCNc2ccnc(Nc3ccc(F)cc3)n2)c1 [GSK1379878]', '%Inh', '0%'),
  ('Clc1ccc(-c2cc(-c3c[nH]nc3-c3ccccn3)ccn2)cc1 [GW681251]', '%Inh', '22%'),
  ('CNc1nccc(-c2c(-c3ccc(F)cc3)ncn2C2CCN(C)CC2)n1 [SB-222903]', '%Inh', '0%'),
  ('Cl.Cl.c1ccc(-c2cc3ccncc3cc2OC2CCNCC2)cc1 [GSK1122999]', '%Inh', '0%');
